Reported activity at 3 µM values are given for each entry in this list.
Test system: Human hepatocellular carcinoma cell line HepG2
Test: EPO production in HepG2 culture supernatant (ELISA), 48 hours at 4% oxygen
Type: cell-based
Conditions: test compound 3 μM, oxygen concentration 4%, 100% = EPO produced in non-stimulated state without compound, read-out: % of Control (3 μM), produced amount of EPO
measuredEndpoint: activity at 3 µM

INSERT INTO measurements (compound, recordedmeasurement) VALUES
  ('CC(=O)N1c2cccnc2[C@H](Nc2ccc(Cl)cc2)C[C@@H]1C (relative stereo)', '153%'),
  ('CC(=O)N1c2ccsc2C(Nc2ccc(Cl)cc2)CC1C (stereo not shown)', '137%'),
  ('CC(=O)N1c2ncccc2[C@H](Nc2ccc(Cl)cc2)C[C@@H]1C (relative stereo)', '416%'),
  ('CC(=O)N1c2ccncc2[C@H](Nc2ccc(Cl)cc2)C[C@@H]1C (relative stereo)', '392%');
